Listed here: items and their measured IC90.
system: M. tuberculosis H37Rv growth inhibition; experiment: Mycobacterium tuberculosis H37Rv growth inhibition, putative kinase inhibitor library, confirmatory dose response (AID 2842);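 note: bacteria incubated one week before Alamar blue readout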

Cc1ccc(Cl)cc1N1CCN(CCn2c(C)c(C)n3c4c(=O)[nH]c(=O)n(C)c4nc23)CC1: 49.7 µg/mL

# input Please report the measured IC90 for Oc1ccc(Nc2nc(NCc3ccccc3)c3ccccc3n2)cc1
# output 2.59 µg/mL

# input Determine from records and report IC90 for O=C(Nc1nnc(-c2ccco2)o1)C1=COCCO1
# output 50.9 µg/mL

# input Tell us which IC90 value is on record for Cc1ccc(C)c(-c2nnc(NC(=O)COc3ccccc3)o2)c1
# output 2.24 µg/mL

# input Recall and state the measured IC90 for Cc1ccc(C)c(-c2nnc(NC(=O)c3ccc([N+](=O)[O-])cc3)o2)c1 .
# output 78.5 µg/mL

# input Provide only the value of recorded IC90 for Cc1cc(C)c2sc(N3CCCC3)nc2c1
# output 1.75 µg/mL

# input For the compound COc1ccccc1N1CCN(c2nc(Nc3ccc(C)c(C)c3)c3nccnc3n2)CC1 , report IC90.
# output 1.68 µg/mL

# input Provide only the value of recorded IC90 for Fc1ccc2nc(Nc3nc(-c4ccc(Cl)s4)cs3)sc2c1
# output 7.87 µg/mL

# input Look up IC90 of COc1ccc(-c2nc(NC(=O)c3cccc(C)c3)sc2C)cc1 and report it.
# output 5.78 µg/mL

# input Determine from records and report IC90 for COC(=O)c1c(NC(=O)Cc2cccc3ccccc23)sc2c1CC(C)(C)NC2(C)C
# output 3.73 µg/mL

# input Provide only the value of recorded IC90 for CCOC(=O)c1ccc(-n2cc(O)c(C(=O)OCC)n2)cc1
# output 20 µg/mL

# input Given the compound O=C(Nc1nnc(-c2ccco2)o1)c1cccs1 , write its reported IC90.
# output 3.12 µg/mL

# input Complete the entry with IC90 for Cc1ccc2sc(N(CCCn3ccnc3)C(=O)c3cccs3)nc2c1C
# output 0.54 µg/mL

# input Kindly indicate its recorded IC90. Item: CC(C)(C)C(=O)Nc1nnc(-c2ccc3c(c2)CCCC3)o1
# output 4.73 µg/mL

====

// reported IC90 for each item listed
tested on: M. tuberculosis H37Rv growth inhibition; test: Mycobacterium tuberculosis H37Rv growth inhibition, putative kinase inhibitor library, confirmatory dose response (AID 2842);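 note: bacteria incubated one week before Alamar blue readout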

O=C(Nc1nnc(-c2ccc(Cl)cc2)o1)c1ccc(Br)cc1: 3.26 µg/mL
O=C(Nc1nnc(-c2ccc(Cl)s2)o1)c1ccc([N+](=O)[O-])o1: 0.85 µg/mL
Cc1ccc2c(c1)NC(=O)c1cc(NS(=O)(=O)c3ccc4c(c3)OCCO4)ccc1O2: 17.5 µg/mL
COc1ccc(Cn2cc3c(-c4ccccc4)nnc-3c3cc(OC)c(OC)cc32)cc1: 6.64 µg/mL
O=C(CSc1nnc2ccc(-c3cccc([N+](=O)[O-])c3)nn12)Nc1cccc(C(F)(F)F)c1: 3.34 µg/mL

# input Give the reported IC90 for this compound. Fc1cccc2sc(Nc3nnc(-c4ccccc4Cl)o3)nc12
# output 16.8 µg/mL

====

Each entry below lists one item and its recorded IC90 value.
system: M. tuberculosis H37Rv growth inhibition; assay: Mycobacterium tuberculosis H37Rv growth inhibition, putative kinase inhibitor library, confirmatory dose response (AID 2842);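 note: bacteria incubated one week before Alamar blue readout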

Cc1[nH]c2ccccc2c1SCCNC(=O)c1cc2ccccc2oc1=O: < 0.2 µg/mL

# input Tell me IC90 reported for CCS(=O)(=O)c1cccc(C(=O)Nc2nnc(-c3ccc(Br)cc3)o2)c1
# output 7.76 µg/mL

# input Please report IC90 for the following molecule: Cc1ccc(-c2nnc(SCC(=O)Nc3cc(C)on3)o2)cc1
# output 3.95 µg/mL

# input Supply reported IC90 belonging to this molecule: O=C(Nc1nnc(-c2ccc3c(c2)OCCO3)o1)c1nc2ccccc2s1
# output 25.8 µg/mL

# input Give the reported IC90 for this molecule. COc1cccc(-c2nnc(NC(=O)/C=C/c3cccs3)o2)c1
# output 3.55 µg/mL

# input // Input: O=C(Nc1nnc(-c2cc(Cl)ccc2Cl)o1)c1ccccc1F . Output its IC90 only.
# output 0.43 µg/mL

# input Tell me IC90 reported for Cc1ccc(-c2nnc(NC(=O)c3ccc(S(=O)(=O)N(C)C)cc3)o2)c(C)c1
# output 41.1 µg/mL
